Measured self-cleavage kobs at 640 uM GlcN6P of individual entries
B1: glmS ribozyme (parent)
chain: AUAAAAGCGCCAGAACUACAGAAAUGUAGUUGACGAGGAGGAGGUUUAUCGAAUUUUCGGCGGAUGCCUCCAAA

- Variants of: B1
- procedure.summary: self-cleavage kobs at 640 uM GlcN6P; higher = faster cleavage; RNA array
- stated.conditions: with glucosamine-6-phosphate
This sample holds only a part of the variants without activity.

- variant.annotation: "A6G C50G"
  self-cleavage kobs at 640 uM GlcN6P: "0.000503 s⁻¹"
- variant.annotation: "C10U G32C G35A"
  self-cleavage kobs at 640 uM GlcN6P: "< 1e-05 s⁻¹"
- variant.annotation: "U2C G32U G44A U47G"
  self-cleavage kobs at 640 uM GlcN6P: "< 1e-05 s⁻¹"
- variant.annotation: "G41U G62U"
  self-cleavage kobs at 640 uM GlcN6P: "< 1e-05 s⁻¹"
- variant.annotation: "A15G C71G"
  self-cleavage kobs at 640 uM GlcN6P: "0.00066 s⁻¹"

IN: Name the recorded self-cleavage kobs at 640 uM GlcN6P of the item G9A C68G in your answer.
OUT: < 1e-05 s⁻¹

IN: Give a short answer stating reported self-cleavage kobs at 640 uM GlcN6P for A36C U47C .
OUT: < 1e-05 s⁻¹

IN: Give recorded self-cleavage kobs at 640 uM GlcN6P. C58G C70A
OUT: 4.04e-05 s⁻¹
